From: PubChem BioAssay AID1117361

- assayed-system: Protein Tat (Human immunodeficiency virus type 1 group M subtype B (isolate HXB2)) (UniProt P04608)
- procedure-summary: inhibitors of Tat binding to TAR RNA, dose response, counter-screen for Vif-APOBEC3G degradation inhibitor project, biochemical, fluorescence polarization, FAM-labeled TAR RNA (AID 1117361)
- assay-context: at 100 µM (top of the series) unless noted; series mostly up to 100 µM
About 900 (25%) of roughly 3,600 compounds were called active. A selection follows. Results with a measured potency or affinity are listed apart.
measured-metric: outcome

Please review the entries below; each comes with its answer.
O=C(CSc1ccc(Cl)cc1)c1ccco1 : inactive
Cn1nc(CC(=O)NCCN2C(=O)CSC2=O)c2ccccc2c1=O : inactive
CC(C)(C)OC(=O)N1CCN(c2ccc([N+](=O)[O-])cc2)CC1 : inactive
CCC(=O)N1CCc2cc(S(=O)(=O)NCCC(=O)NC3CCCc4ccccc43)ccc21 (stereo not given) : inactive
CCCn1c(=O)c(-c2ccccc2)c(O)c2ccccc21 : inactive
CCc1ccc(N2C(=O)Cc3c2nc(N)c(C#N)c3N)cc1 : inactive
COc1ccc(C2OC(=O)CC2C(=O)N2CCN(c3cc(Cl)ccc3C)CC2)cc1OC (stereo not given) : inactive
CC(NC(=O)C(NS(=O)(=O)c1cccs1)C(C)C)c1ccc(S(N)(=O)=O)cc1 (stereo not given) : inactive

q: Please give the measured outcome for this molecule: CC(NC(=O)/C(C#N)=C/c1cn[nH]c1-c1ccccc1)c1ccccc1 (stereo not given)
a: inactive

q: Item: Cc1[nH]c(=O)[nH]c(=O)c1S(=O)(=O)N1CCCC(C(=O)NCCc2ccccc2)C1 (stereo not given)
a: inactive

====

- assayed-system: Protein Tat (Human immunodeficiency virus type 1 group M subtype B (isolate HXB2)) (UniProt P04608)
- procedure-summary: inhibitors of Tat binding to TAR RNA, dose response, counter-screen for Vif-APOBEC3G degradation inhibitor project, biochemical, fluorescence polarization, FAM-labeled TAR RNA (AID 1117361)
- assay-context: at 100 µM (top of the series) unless noted; series mostly up to 100 µM
In all, about 3,600 compounds went through this assay and about 900 (25%) were called active. Not all results are given here. Results with a measured potency or affinity are listed apart.
measured-metric: outcome

O=C(O)c1ccc2c(c1)N(Cc1cccc(F)c1)C(=O)CS2 : inactive
O=C(NCc1ccncc1)c1cnccn1 : inactive
COc1ccc(OCc2nnc3n2N=C(c2ccc(OC)cc2)CS3)cc1 : inactive
CC(C)C(NC(N)=O)C(=O)NC1CCCCC1 (stereo unspecified) : inactive
O=C(CCCCn1c(=O)[nH]c2ccsc2c1=O)NCc1cccnc1 : inactive
Cc1ccc2nsnc2c1S(=O)(=O)N(Cc1ccco1)Cc1cc2cccc(C)c2[nH]c1=O : inactive
CC1CC(C)CN(C(=O)COC(=O)CNS(=O)(=O)/C=C/c2ccccc2)C1 (stereo unspecified) : inactive
C/C(=N\OC(=O)c1ccc(F)cc1)c1sc(-c2ccccc2)nc1C : inactive
CCOn1c(=O)c(=O)n(OCc2ccccc2)c2ccccc21 : inactive
Cc1onc(-c2ccccc2)c1CNC(=O)C1COc2ccccc2O1 (stereo unspecified) : inactive

// next item, outcome requested
q: Please give the measured outcome for this molecule: CCC(C)N1CC23C=CC(O2)C(C(=O)OC)C3C1=O (stereo unspecified)
a: inactive

====

- assayed-system: Protein Tat (Human immunodeficiency virus type 1 group M subtype B (isolate HXB2)) (UniProt P04608)
- procedure-summary: inhibitors of Tat binding to TAR RNA, dose response, counter-screen for Vif-APOBEC3G degradation inhibitor project, biochemical, fluorescence polarization, FAM-labeled TAR RNA (AID 1117361)
- assay-context: at 100 µM (top of the series) unless noted; series mostly up to 100 µM
The campaign covered roughly 3,600 compounds. About 900 (25%) were called active. Only a sample is shown. Potency and affinity values are given separately.
measured-metric: outcome

Please review the entries below; each comes with its answer.
O=C(Nc1ccc(N2CCCCC2)cc1)c1cc([N+](=O)[O-])cc([N+](=O)[O-])c1 : inactive
Cc1ccc(S(=O)(=O)N(C)CC(O)Cn2c3ccccc3c3ccccc32)cc1 (stereo unspecified) : inactive
Oc1ccc(Cl)cc1-c1cc(-c2ccccc2)n[nH]1 : inactive
CC(C)(C)c1nnc(NC(=O)c2ccc(Cl)nc2)s1 : inactive
CCn1c(=O)c(C(=O)NCc2ccccn2)c(O)c2ccccc21 : inactive

q: Please give the measured outcome for this compound: `O=C(Nc1ccccc1)c1ccc(S(=O)(=O)N(CCO)CCO)cc1`
a: inactive

====

- assayed-system: Protein Tat (Human immunodeficiency virus type 1 group M subtype B (isolate HXB2))
- procedure-summary: inhibitors of Tat binding to TAR RNA, dose response, counter-screen for Vif-APOBEC3G degradation inhibitor project, biochemical, fluorescence polarization, FAM-labeled TAR RNA (AID 1117361)
- assay-context: at 100 µM (top of the series) unless noted; series mostly up to 100 µM
Out of some 3,600 compounds screened, about 900 (25%) were called active. Not all results are given here. Potency and affinity values are given separately.
measured-metric: outcome

Please review the entries below; each comes with its answer.
COc1ccc(C(C)=O)cc1CN1C(=O)NC2(CCCC2)C1=O : inactive
O=S(=O)(c1cccc2ccccc12)n1nnc2ccccc21 : inactive
CC(C)C(c1nnnn1C1CCCCC1)N1CCN(c2ncccn2)CC1 (stereo unspecified) : inactive
CCOC(=O)c1cc2ccc(OC)c(OC)c2c(=O)s1 : inactive
CN(C(=O)c1ccc(OC2CCN(S(=O)(=O)N(C)C)CC2)cc1)C1CCCCC1 : inactive
CCOc1ccc(/C=C2\SC(=S)N(CCC(=O)O)C2=O)cc1 : inactive
CC(CN1CCN(C)CC1)OC(=O)c1ccccc1Cl (stereo unspecified) : inactive
CCc1cccc(NC(=O)CCCCCC2NC(=O)NC2C)c1 (stereo unspecified) : inactive

q: Checklist item: outcome tested on Protein Tat (Human immunodeficiency virus type 1 group M subtype B (isolate HXB2)), entry `O=C(CCS(=O)(=O)c1ccc(Br)cc1)N1CCN(c2ccc(F)cc2)CC1` , value?
a: inactive

q: Item: CCC(C)NC(=O)CSc1nc2n[nH]c(C)c2c(=N)n1-c1ccc(OC)cc1 (stereo unspecified)
a: inactive

q: Item: CC1(C)C2CCC1(C)C(NC1=NCCC1)C2 (stereo unspecified)
a: inactive

====

- assayed-system: Protein Tat (Human immunodeficiency virus type 1 group M subtype B (isolate HXB2))
- procedure-summary: inhibitors of Tat binding to TAR RNA, dose response, counter-screen for Vif-APOBEC3G degradation inhibitor project, biochemical, fluorescence polarization, FAM-labeled TAR RNA (AID 1117361)
- assay-context: at 100 µM (top of the series) unless noted; series mostly up to 100 µM
The campaign covered roughly 3,600 compounds. About 900 (25%) were called active. The list is a sample of the results. Potency and affinity values are given separately.
measured-metric: outcome

Oc1c(CN2CCOCC2)cc(CN2CCOCC2)c(O)c1O : inactive
Nc1c(S(=O)(=O)c2ccccc2)c2nc3ccccc3nc2n1/N=C/c1ccco1 : inactive
O=C(NCc1ccco1)c1sc2cccc(F)c2c1Cl : inactive
CNC(=O)CN(C)S(=O)(=O)c1ccc(F)cc1 : inactive
Cc1ccc(C(=O)Oc2ccc(Cl)c3cccnc23)cc1[N+](=O)[O-] : inactive
Cc1cc(=O)oc2cc(OCC(=O)NCc3cccnc3)ccc12 : inactive
Brc1ccccc1Cn1c(-c2cncs2)nc2ccccc21 : inactive
COc1ccc(/C=N/N=C2/NC(=O)C(c3ccccc3)S2)c(OC)c1 (configuration not stated) : inactive
CN(C(=O)CSc1nnc(N)s1)c1c(N)n(Cc2ccccc2)c(=O)[nH]c1=O : inactive
CCOC(=O)C1CCN(C(=O)c2ccc(OC)cc2OC)CC1 : inactive

q: Please give the measured outcome for this compound: CCC(C)N1C(=O)S/C(=C/c2ccc(Sc3nc4ccccc4[nH]3)o2)C1=O (configuration not stated)
a: inactive

q: Item: `Cc1c(C)c2ccc(O[C@@H]3O[C@H](CO)[C@H](O)[C@H](O)[C@H]3O)c(C)c2oc1=O`
a: inactive

q: Item: `COc1ccc(NC(=O)c2ccc(-n3cccn3)nc2)cc1`
a: inactive

q: Item: `CCn1cc(C(=O)NCc2ccco2)c2cc(OC)c(OC)cc2c1=O`
a: inactive

q: Item: `COc1ccc(OC)c(S(=O)(=O)N2CCN(C)CC2)c1`
a: inactive

q: Item: `CCOC(=O)C1CCN(C(=O)C2CCN(S(=O)(=O)c3cc(Cl)ccc3Cl)CC2)CC1`
a: inactive

q: Item: `COc1ccccc1N(C)S(=O)(=O)c1ccc(C(=O)NC(C)(C)C)cc1`
a: inactive

q: Item: `COc1ccc(C(=O)Oc2c(CN3CCOCC3)cc(Cl)c3cccnc23)cc1`
a: inactive

q: Item: `Cc1cccc(S(=O)(=O)c2c(N)n(/N=C/c3ccco3)c3nc4ccccc4nc23)c1`
a: inactive

q: Item: `O=C(Nc1cccc(Cl)c1)C1=Cc2cc(Cl)ccc2OC1`
a: inactive

q: Item: `Cc1ccc(-n2ncc3c(=O)[nH]cnc32)c(C)c1`
a: inactive

q: Item: COc1cc(/C=N/N=C2/NC(=O)C(c3ccccc3)S2)ccc1O (configuration not stated)
a: inactive
